test system: Escherichia coli TOP10; experiment: shrunken log2 fold change of peptide-encoding DNA abundance (4.5 h post-induction vs induction); higher = less antimicrobial activity (less host growth inhibition); conditions: time post-induction: 4.5 h; library: site-saturation at positions 5, 18, 19, 20
Decide using shrunken log2 fold change: a value greater than or equal to 0.08 is YES, a smaller one is NO.

{"columns": ["Sequence code", "Cat"],
 "data": [
  ["RRIRMRPPRLPRPRPRPIRVPRP", "YES"],
  ["RRIRSRPPRLPRPRPRPFMMPRP", "NO"],
  ["RRIRPRPPRLPRPRPRPFQDPRP", "NO"],
  ["RRIRFRPPRLPRPRPRPFAYPRP", "NO"],
  ["RRIRLRPPRLPRPRPRPMYCPRP", "NO"]
]}

Please turn your attention to the following entry.
Please indicate if the recorded shrunken log2 fold change for RRIRSRPPRLPRPRPRPWWHPRP meets or exceeds 0.08. NO

====

system: Escherichia coli TOP10; experiment: shrunken log2 fold change of peptide-encoding DNA abundance (4.5 h post-induction vs induction); higher = less antimicrobial activity (less host growth inhibition); settings: time post-induction: 4.5 h; library: site-saturation at positions 5, 18, 19, 20
Decide using shrunken log2 fold change: a value greater than or equal to -0.008 is yes (1), a smaller one is no (0).

{"columns": ["Sequence code", "Cat"],
 "data": [
  ["RRIRCRPPRLPRPRPRPMNLPRP", "no (0)"]
]}

Please indicate if the recorded shrunken log2 fold change for RRIRERPPRLPRPRPRPQHTPRP meets or exceeds -0.008. no (0)

Try this sequence next: RRIRCRPPRLPRPRPRPIRCPRP yes (1)

Try this sequence next: RRIRSRPPRLPRPRPRPKEAPRP no (0)

Try this sequence next: RRIRDRPPRLPRPRPRPTMVPRP yes (1)

====

Task for the reader: assign each of the following sequences its reported shrunken log2 fold change.
system: Escherichia coli TOP10; assay: shrunken log2 fold change of peptide-encoding DNA abundance (4.5 h post-induction vs induction); higher = less antimicrobial activity (less host growth inhibition); settings: time post-induction: 4.5 h; library: site-saturation at positions 5, 18, 19, 20;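 also: peptides expressed intracellularly from a pBAD plasmid library in pooled LB shake-flask culture, induced with 0.3% L-arabinose, DNA abundance read by NGS, three biological replicates, DESeq2 with apeglm shrinkage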
Answers are plain numbers.

Please go through the list and note shrunken log2 fold change for each sequence.
1. RRIRVRPPRLPRPRPRPINEPRP
2. RRIRSRPPRLPRPRPRPTTVPRP
3. RRIRSRPPRLPRPRPRPELLPRP
4. RRIRSRPPRLPRPRPRPGHCPRP
5. RRIRVRPPRLPRPRPRPQRKPRP
6. RRIRMRPPRLPRPRPRPLDHPRP
7. RRIRPRPPRLPRPRPRPWVQPRP
8. RRIRNRPPRLPRPRPRPYMSPRP

1. -0.3
2. 0.14
3. -0.111
4. 0.0298
5. 0.0451
6. 0.103
7. 0.0127
8. -0.019

Please go through the list and note shrunken log2 fold change for each sequence.
1. RRIRIRPPRLPRPRPRPVQTPRP
2. RRIRRRPPRLPRPRPRPLYWPRP
3. RRIRPRPPRLPRPRPRPCWDPRP
4. RRIRGRPPRLPRPRPRPKTMPRP
5. RRIRYRPPRLPRPRPRPNMKPRP
6. RRIRRRPPRLPRPRPRPHQCPRP
7. RRIRRRPPRLPRPRPRPFVFPRP

-0.0646
0.0153
-0.0457
0.459
-0.815
-0.0941
0.274
